System: Pseudomonas aeruginosa ATCC 27853
test-method-notes: ≥ marks a high value that may be exact or a test limit, other limits are often not marked, values filed in µg/mL are converted to µM
measured-quantity: MIC (µM)
Express the result in µM but write the number alone.

Ask: Please indicate MIC recorded for NCC(=O)N[C@@H](CCCN=C(N)N)C(=O)N[C@@H](CCCN=C(N)N)C(=O)N1CCC[C@H]1C(=O)N[C@@H](CCCN=C(N)N)C(=O)N1CCC[C@H]1C(=O)N[C@@H](CCCN=C(N)N)C(=O)N1CCC[C@H]1C(=O)N[C@@H](CCCN=C(N)N)C(=O)N1CCC[C@H]1C(=O)N[C@@H](Cc1c[nH]c2ccccc12)C(=O)N[C@@H](Cc1c[nH]c2ccccc12)C(=O)N[C@@H](Cc1c[nH]c2ccccc12)C(=O)N[C@@H](Cc1c[nH]c2ccccc12)C(=O)N[C@@H](Cc1c[nH]c2ccccc12)C(=O)O
Result: 20

====

Target or system Bacillus cereus AS1.126: recorded MIC listed per item.
Express the result in µM but write the number alone.

[[record]]
cpd_smiles = "CC[C@H](C)[C@H](NC(=O)[C@H](CCCCN)NC(=O)[C@H](CO)NC(=O)[C@H](Cc1c[nH]c2ccccc12)NC(=O)[C@@H](NC(=O)[C@H](CCCCN)NC(=O)[C@H](CCCCN)NC(=O)[C@@H](N)Cc1c[nH]c2ccccc12)[C@@H](C)CC)C(=O)N[C@@H](CCCCN)C(=O)N[C@@H](CCCCN)C(=O)N[C@@H](CC(C)C)C(=O)N[C@@H](CC(C)C)C(=O)N[C@@H](CCCCN)C(N)=O"
unit = "µM"
recorded_measurement = 3.13

[[record]]
cpd_smiles = "NC(N)=NCCC[C@H](NC(=O)[C@H](CCCN=C(N)N)NC(=O)[C@H](Cc1c[nH]c2ccccc12)NC(=O)[C@H](Cc1ccccc1)NC(=O)[C@H](CCCN=C(N)N)NC(=O)[C@H](CCCN=C(N)N)NC(=O)[C@H](Cc1c[nH]c2ccccc12)NC(=O)[C@@H](N)CCCN=C(N)N)C(=O)O"
unit = "µM"
recorded_measurement = 3.13


Ask: Please indicate MIC recorded for CC(C)C[C@H](NC(=O)[C@H](Cc1cnc[nH]1)NC(=O)[C@H](CCCN=C(N)N)NC(=O)CNC(=O)[C@@H](NC(=O)[C@H](C)NC(=O)[C@@H](N)CO)C(C)C)C(=O)N[C@@H](CCCN=C(N)N)C(=O)N[C@@H](CCCN=C(N)N)C(=O)N[C@@H](Cc1ccccc1)C(=O)N[C@@H](CC(C)C)C(=O)N[C@@H](CC(C)C)C(=O)N[C@@H](CCCN=C(N)N)C(=O)N[C@@H](CCCCN)C(=O)N[C@@H](Cc1cnc[nH]1)C(=O)N[C@@H](CCCN=C(N)N)C(=O)N[C@@H](CCCCN)C(=O)N[C@@H](Cc1cnc[nH]1)C(=O)O
Result: 2.34

====

System: Staphylococcus aureus ATCC 25923
test-method-notes: ≥ marks a high value that may be exact or a test limit, other limits are often not marked, values filed in µg/mL are converted to µM
# MIC per entry

[[record]]
cpd_smiles = "CC[C@H](C)[C@H](NC(=O)[C@H](CCCN=C(N)N)NC(=O)[C@H](CCCN=C(N)N)NC(=O)[C@H](CC(C)C)NC(=O)[C@H](Cc1ccccc1)NC(=O)[C@H](Cc1ccccc1)NC(=O)[C@@H](N)Cc1ccccc1)C(=O)N[C@@H](Cc1ccccc1)C(=O)O"
recorded_measurement = "100 µM"

[[record]]
cpd_smiles = "CC(C)C[C@H](NC(=O)[C@H](CC(C)C)NC(=O)CNC(=O)[C@H](CO)NC(=O)[C@H](CC(C)C)NC(=O)[C@@H](NC(=O)[C@H](CCCN=C(N)N)NC(=O)CNC(=O)[C@H](CC(C)C)NC(=O)[C@H](CC(C)C)NC(=O)[C@@H]1CCCN1C(=O)[C@H](CC(C)C)NC(=O)[C@@H](N)Cc1ccccc1)C(C)C)C(N)=O"
recorded_measurement = "5.2 µM"


Now take the following compound into account.
Ask: Please indicate MIC recorded for CC[C@H](C)[C@H](N)C(=O)N1CCC[C@H]1C(=O)N1CCC[C@H]1C(=O)N[C@@H](Cc1ccccc1)C(=O)N[C@H](C(=O)N[C@@H](CCCCN)C(=O)N[C@@H](CCCCN)C(=O)N[C@H](C(=O)N[C@@H](CC(C)C)C(=O)N[C@H](C(=O)N[C@H](C(=O)N[C@H](C(=O)N[C@@H](Cc1ccccc1)C(N)=O)C(C)C)[C@@H](C)O)[C@@H](C)O)C(C)C)[C@@H](C)CC
Result: 50 µM
